Kindly supply the reported pEC50 values for the records listed here.
# Target Entity: human mGluR5 (Homo sapiens, UniProt P41594)
# Sequence (P41594 21-1180 isoform P41594-2 limits assumed): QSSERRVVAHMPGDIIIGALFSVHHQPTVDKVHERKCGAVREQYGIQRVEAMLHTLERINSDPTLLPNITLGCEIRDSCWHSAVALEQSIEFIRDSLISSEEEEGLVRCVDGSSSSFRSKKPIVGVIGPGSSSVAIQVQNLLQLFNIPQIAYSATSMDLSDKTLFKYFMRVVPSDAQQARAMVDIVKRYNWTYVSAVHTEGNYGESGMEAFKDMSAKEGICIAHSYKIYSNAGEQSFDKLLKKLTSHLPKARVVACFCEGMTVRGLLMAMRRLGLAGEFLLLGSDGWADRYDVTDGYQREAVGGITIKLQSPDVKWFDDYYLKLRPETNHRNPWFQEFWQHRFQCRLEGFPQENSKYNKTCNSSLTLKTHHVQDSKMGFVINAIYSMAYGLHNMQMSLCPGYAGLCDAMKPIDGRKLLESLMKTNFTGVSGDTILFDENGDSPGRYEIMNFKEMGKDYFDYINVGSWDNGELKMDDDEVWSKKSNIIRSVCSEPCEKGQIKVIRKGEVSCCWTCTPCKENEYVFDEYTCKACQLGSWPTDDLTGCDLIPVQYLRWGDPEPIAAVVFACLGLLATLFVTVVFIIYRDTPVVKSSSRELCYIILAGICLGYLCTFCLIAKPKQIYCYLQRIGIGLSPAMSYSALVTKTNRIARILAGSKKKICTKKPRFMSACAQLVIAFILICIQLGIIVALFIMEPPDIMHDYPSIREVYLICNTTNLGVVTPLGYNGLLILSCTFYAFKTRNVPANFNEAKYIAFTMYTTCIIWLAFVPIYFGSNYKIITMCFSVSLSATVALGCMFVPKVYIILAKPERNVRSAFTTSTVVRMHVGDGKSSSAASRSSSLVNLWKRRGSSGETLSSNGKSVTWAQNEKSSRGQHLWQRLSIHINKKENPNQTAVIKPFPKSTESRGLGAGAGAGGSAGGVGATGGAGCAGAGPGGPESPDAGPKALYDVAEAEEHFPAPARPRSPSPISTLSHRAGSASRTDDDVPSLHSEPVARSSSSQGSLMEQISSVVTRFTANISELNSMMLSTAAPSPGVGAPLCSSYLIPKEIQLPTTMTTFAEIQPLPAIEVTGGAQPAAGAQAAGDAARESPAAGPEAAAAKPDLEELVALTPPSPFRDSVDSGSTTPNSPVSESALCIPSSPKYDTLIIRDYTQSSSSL
# Protocol Description: Cell-based functional Ca2+ mobilization assay (FDSS), potentiation of glutamate EC20 response
# Test Parameters: H10H cell-line; potentiation in presence of glutamate EC20
// returns pEC50 (minus log10 of molar concentration), number only

Write down the reported pEC50 (system: human mGluR5 (Homo sapiens, UniProt P41594)) of C[C@@H]1Cn2nc(COc3ccccc3)cc2C(=O)N1CC1CC1(F)F (some centres unmarked)
6.06

Write down the reported pEC50 (system: human mGluR5 (Homo sapiens, UniProt P41594)) of `O=C1c2cc(COc3ccccc3)nn2CCN1C1Cc2ccccc2C1`
7.23

Write down the reported pEC50 (system: human mGluR5 (Homo sapiens, UniProt P41594)) of `O=C1c2cc(COc3cccc(F)c3)nn2CCN1C[C@@H]1CC1(F)F`
6.96

Write down the reported pEC50 (system: human mGluR5 (Homo sapiens, UniProt P41594)) of CC1CCn2nc(COc3ccccc3)cc2C(=O)N1CC1CC1 (centres unmarked)
6.40

Write down the reported pEC50 (system: human mGluR5 (Homo sapiens, UniProt P41594)) of `CC1(C)CCC(N2CCn3nc(COc4ccccc4)cc3C2=O)CC1`
7.01

Write down the reported pEC50 (system: human mGluR5 (Homo sapiens, UniProt P41594)) of `O=C1c2cc(COc3ccccc3)nn2CCN1C[C@H]1CC1(F)F`
6.63

Write down the reported pEC50 (system: human mGluR5 (Homo sapiens, UniProt P41594)) of `O=C1c2cc(COc3ccccc3)nn2CCN1CC1CC(F)(F)C1`
6.19

Write down the reported pEC50 (system: human mGluR5 (Homo sapiens, UniProt P41594)) of `O=C1c2cc(COc3ccccc3)nn2CCN1CC1CCCCC1`
7.28

Write down the reported pEC50 (system: human mGluR5 (Homo sapiens, UniProt P41594)) of `O=C1c2cc(COc3ccccc3)nn2CCN1C1CCC1`
6.49

Write down the reported pEC50 (system: human mGluR5 (Homo sapiens, UniProt P41594)) of `CC1(CN2CCn3nc(COc4ccccc4)cc3C2=O)COC1`
5.96

Write down the reported pEC50 (system: human mGluR5 (Homo sapiens, UniProt P41594)) of `C[C@@H]1Cn2nc(COc3ccccc3)cc2C(=O)N1CC1CCC1`
7.04
